# ASSAY TEXT: Pharmacokinetic study in rat plasma after oral administration of Nauclea officinalis extracts (HPLC-MS/MS)
# Type: in vivo, Male Sprague–Dawley (SD) rats
# TEST CONTEXT: male, Sprague-Dawley, oral Nauclea officinalis extracts 2 g/kg, noncompartment model, mean ± SD, n = 6, read-out: t1/2 (elimination half-life) (converted)
RESULT TYPE: half-life (h)

P = C/C=C1/COC(=O)[C@H]2C(=O)N3CCc4c([nH]c5ccccc45)[C@@H]3C[C@@H]12
Q = O=C(/C=C/c1ccc(O)c(O)c1)O[C@@H]1C[C@](O)(C(=O)O)C[C@@H](O)[C@H]1O
[Q] Field: lower recorded half-life (choose P or Q ) Indicate which entry you chose by stating its label.
[A] P

====

# ASSAY TEXT: Pharmacokinetic study in rat plasma after oral administration of Nauclea officinalis extracts (HPLC-MS/MS)
# Assay type: in vivo, Male Sprague–Dawley (SD) rats
# TEST CONTEXT: male, Sprague-Dawley, oral Nauclea officinalis extracts 2 g/kg, noncompartment model, mean ± SD, n = 6, read-out: C max (maximum plasma concentration)
RESULT TYPE: Cmax (ng/mL)

I = C/C=C1/COC(=O)[C@H]2C(=O)N3CCc4c([nH]c5ccccc45)[C@@H]3C[C@@H]12 [Naucleactonin C]
II = O=C(/C=C/c1ccc(O)c(O)c1)O[C@@H]1C[C@](O)(C(=O)O)C[C@@H](O)[C@H]1O [Chlorogenic acid]
[Q] Of I and II , which one carries the higher reported Cmax? Indicate which entry you chose by stating its label.
[A] I

====

# ASSAY TEXT: Pharmacokinetic study in rat plasma after oral administration of Nauclea officinalis extracts (HPLC-MS/MS)
# Assay type: in vivo, Male Sprague–Dawley (SD) rats
# TEST CONTEXT: male, Sprague-Dawley, oral Nauclea officinalis extracts 2 g/kg, noncompartment model, mean ± SD, n = 6, read-out: Vz/F (apparent distribution volume)
RESULT TYPE: Vd/F (L/kg)

1 = C/C=C1/COC(=O)[C@H]2C(=O)N3CCc4c([nH]c5ccccc45)[C@@H]3C[C@@H]12
2 = O=C(/C=C/c1ccc(O)c(O)c1)O[C@@H]1C[C@](O)(C(=O)O)C[C@@H](O)[C@H]1O
[Q] Of 1 and 2 , which one carries the higher reported Vd/F? Indicate which entry you chose by stating its label.
[A] 2
(2: 916 L/kg, 1: 0.966 L/kg)

====

# ASSAY TEXT: Pharmacokinetic study in rat plasma after oral administration of Nauclea officinalis extracts (HPLC-MS/MS)
# Format: in vivo, Male Sprague–Dawley (SD) rats
# TEST CONTEXT: male, Sprague-Dawley, oral Nauclea officinalis extracts 2 g/kg, noncompartment model, mean ± SD, n = 6, read-out: MRT (0 − t)
RESULT TYPE: MRT last (h)

[[record]]
compound = "C/C=C1/COC(=O)[C@H]2C(=O)N3CCc4c([nH]c5ccccc45)[C@@H]3C[C@@H]12 [Naucleactonin C]"
result_type = "MRT last"
measurement = 4.76

[[record]]
compound = "O=C(/C=C/c1ccc(O)c(O)c1)O[C@@H]1C[C@](O)(C(=O)O)C[C@@H](O)[C@H]1O [Chlorogenic acid]"
result_type = "MRT last"
measurement = 5.33

